Where these numbers come from: PubChem BioAssay AID2060904

# Test system: 349418-098-R-PDC complex spheroid viability
# assay.text: Anticancer human tumor 349418-098-R-PDC patient-derived lung adenocarcinoma cell line growth inhibition [RAS]
# experimental.parameters: second compound 0.0316 µM; first compound 0.00316 µM; hits give low values
metric: viability, T/C (%)
# value in %; strip the unit string

// query Give recorded viability, T/C with 349418-098-R-PDC complex spheroid viability for the following compound: CC(C)n1nc(-c2ccc3oc(N)nc3c2)c2c(N)ncnc21 + C=CC(=O)N1CCN(c2nc(OCC3CCCN3C)nc3c(F)c(-c4nc(N)cc(C)c4C(F)(F)F)c(Cl)cc23)C(C)C1
// result 50.9

// query Same thing, different compound: Nc1ccn(C2OC(CO)C(O)C2(F)F)c(=O)n1 (centres undefined) + C#Cc1c(F)ccc2cc(O)cc(-c3ncc4c(N5CC6CCC(C5)N6)nc(OCC56CCCN5CC(F)C6)nc4c3F)c12
// result 22.7

// query Same thing, different compound: C=CC(=O)N1CCN(c2nc(OCC3CCCN3C)nc3c(F)c(-c4nc(N)cc(C)c4C(F)(F)F)c(Cl)cc23)C(C)C1 (centres undefined) + C#Cc1c(F)ccc2cc(O)cc(-c3ncc4c(N5CC6CCC(C5)N6)nc(OCC56CCCN5CC(F)C6)nc4c3F)c12
// result 82.8

// query Same thing, different compound: C=CC(=O)Nc1cc(Nc2nccc(-c3cn(C)c4ccccc34)n2)c(OC)cc1N(C)CCN(C)C + C#Cc1c(F)ccc2cc(O)cc(-c3ncc4c(N5CC6CCC(C5)N6)nc(OCC56CCCN5CC(F)C6)nc4c3F)c12
// result 97.1

###

# Test system: 349418-098-R-PDC complex spheroid viability
# assay.text: Anticancer human tumor 349418-098-R-PDC cell line growth inhibition [RAS];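 further: spheroids exposed to compound for seven days before viability readout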
# experimental.parameters: second compound 0.00949 µM; first compound 1 µM; hits give low values
metric: viability, T/C (%)
# value in %; strip the unit string

// query Using the record for CCC(CC)c1cc(NC2CCC(N)C2)n2nccc2n1 (stereo not drawn) + CCn1c(-c2cccnc2C(C)OC)c2c3cc(ccc31)N1CCOC(CC(NC(=O)C(C(C)C)N(C)C(=O)C3(F)CCN(C(=O)C#CC(C)(C)N(C)C)CC3)C(=O)N3CCCC(N3)C(=O)OCC(C)(C)C2)C1 , report its viability, T/C.
// result 44.8

// query Same thing, different compound: CC(Nc1ccc2c(c1)OCCn1cc(N3C(=O)OCC3C(F)F)nc1-2)C(N)=O (stereo not drawn) + CCn1c(-c2cccnc2C(C)OC)c2c3cc(ccc31)N1CCOC(CC(NC(=O)C(C(C)C)N(C)C(=O)C3(F)CCN(C(=O)C#CC(C)(C)N(C)C)CC3)C(=O)N3CCCC(N3)C(=O)OCC(C)(C)C2)C1
// result 14.9

// query Same thing, different compound: CC(=O)OC12COC1CC(O)C1(C)C(=O)C(O)C3=C(C)C(OC(=O)C(O)C(NC(=O)OC(C)(C)C)c4ccccc4)CC(O)(C(OC(=O)c4ccccc4)C21)C3(C)C (stereo not drawn) + CCn1c(-c2cc(N3CCN(C)CC3)cnc2C(C)OC)c2c3cc(ccc31)-c1csc(n1)CC(NC(=O)C1CC1C)C(=O)N1CCCC(N1)C(=O)OCC(C)(C)C2
// result 16

###

# Test system: 349418-098-R-PDC complex spheroid viability
# assay.text: Anticancer human tumor 349418-098-R-PDC cell line growth inhibition [RAS]; active = viability on the fitted dose curve at most 10% of control; inactive = the rest;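 further: spheroids exposed to compound for seven days before viability readout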
# experimental.parameters: second compound 0.03 µM; first compound 0.1 µM
# valid calls are class 1 = active, class 0 = inactive; nothing else

// query Hi, sorry to bother you, what did the test record for CCC(CC)c1cc(NC2CCC(N)C2)n2nccc2n1 (stereo unspecified) + CCn1c(-c2cc(N3CCN(C)CC3)cnc2C(C)OC)c2c3cc(ccc31)-c1csc(n1)CC(NC(=O)C1CC1C)C(=O)N1CCCC(N1)C(=O)OCC(C)(C)C2 ?
// result class 0

// query Same thing, different compound: CC(=O)OC12COC1CC(O)C1(C)C(=O)C(O)C3=C(C)C(OC(=O)C(O)C(NC(=O)OC(C)(C)C)c4ccccc4)CC(O)(C(OC(=O)c4ccccc4)C21)C3(C)C (stereo unspecified) + CCn1c(-c2cc(N3CCN(C)CC3)cnc2C(C)OC)c2c3cc(ccc31)-c1csc(n1)CC(NC(=O)C1CC1C)C(=O)N1CCCC(N1)C(=O)OCC(C)(C)C2
// result class 0

// query Same thing, different compound: NC1c2ccccc2OC12CCN(c1cnc3c(N4CCCc5ncccc54)n[nH]c3n1)CC2 (stereo unspecified) + CCn1c(-c2cc(N3CCN(C)CC3)cnc2C(C)OC)c2c3cc(ccc31)-c1csc(n1)CC(NC(=O)C1CC1C)C(=O)N1CCCC(N1)C(=O)OCC(C)(C)C2
// result class 0

// query Same thing, different compound: O=C(c1ccc(F)c(F)c1Nc1ccc(I)cc1F)N1CC(O)([C@@H]2CCCCN2)C1 + CCn1c(-c2cccnc2C(C)OC)c2c3cc(ccc31)N1CCOC(CC(NC(=O)C(C(C)C)N(C)C(=O)C3(F)CCN(C(=O)C#CC(C)(C)N(C)C)CC3)C(=O)N3CCCC(N3)C(=O)OCC(C)(C)C2)C1
// result class 1

// query Same thing, different compound: CC(C)n1nc(-c2ccc3oc(N)nc3c2)c2c(N)ncnc21 + CCn1c(-c2cccnc2C(C)OC)c2c3cc(ccc31)N1CCOC(CC(NC(=O)C(C(C)C)N(C)C(=O)C3(F)CCN(C(=O)C#CC(C)(C)N(C)C)CC3)C(=O)N3CCCC(N3)C(=O)OCC(C)(C)C2)C1
// result class 1

// query Same thing, different compound: CCC(CC)c1cc(NC2CCC(N)C2)n2nccc2n1 (stereo unspecified) + CCn1c(-c2cccnc2C(C)OC)c2c3cc(ccc31)N1CCOC(CC(NC(=O)C(C(C)C)N(C)C(=O)C3(F)CCN(C(=O)C#CC(C)(C)N(C)C)CC3)C(=O)N3CCCC(N3)C(=O)OCC(C)(C)C2)C1
// result class 0

###

# System: 349418-098-R-PDC complex spheroid viability
# assay.text: Anticancer human tumor 349418-098-R-PDC cell line growth inhibition [RAS];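 further: spheroids exposed to compound for seven days before viability readout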
# experimental.parameters: second compound 0.000949 µM; first compound 0.316 µM; hits give low values
Threshold-based label: viability, T/C under 80% gives YES, viability, T/C not under 80% gives NO.

// query Please determine if C=CC(=O)N1CCN(c2nc(OCC3CCCN3C)nc3c(F)c(-c4nc(N)cc(C)c4C(F)(F)F)c(Cl)cc23)C(C)C1 (configuration not stated) + CCn1c(-c2cc(N3CCN(C)CC3)cnc2C(C)OC)c2c3cc(ccc31)-c1csc(n1)CC(NC(=O)C1CC1C)C(=O)N1CCCC(N1)C(=O)OCC(C)(C)C2 is below 80% in terms of viability, T/C.
// result NO

// query Same thing, different compound: Cc1nc(N2CCC3(CC2)COC(C)C3N)c(CO)nc1Sc1ccnc(N)c1Cl (configuration not stated) + CCn1c(-c2cc(N3CCN(C)CC3)cnc2C(C)OC)c2c3cc(ccc31)-c1csc(n1)CC(NC(=O)C1CC1C)C(=O)N1CCCC(N1)C(=O)OCC(C)(C)C2
// result NO

// query Same thing, different compound: O=C(c1ccc(F)c(F)c1Nc1ccc(I)cc1F)N1CC(O)([C@@H]2CCCCN2)C1 + CCn1c(-c2cccnc2C(C)OC)c2c3cc(ccc31)N1CCOC(CC(NC(=O)C(C(C)C)N(C)C(=O)C3(F)CCN(C(=O)C#CC(C)(C)N(C)C)CC3)C(=O)N3CCCC(N3)C(=O)OCC(C)(C)C2)C1
// result YES

// query Same thing, different compound: NC1c2ccccc2OC12CCN(c1cnc3c(N4CCCc5ncccc54)n[nH]c3n1)CC2 (configuration not stated) + CCn1c(-c2cc(N3CCN(C)CC3)cnc2C(C)OC)c2c3cc(ccc31)-c1csc(n1)CC(NC(=O)C1CC1C)C(=O)N1CCCC(N1)C(=O)OCC(C)(C)C2
// result NO

// query Same thing, different compound: CC(Nc1ccc2c(c1)OCCn1cc(N3C(=O)OCC3C(F)F)nc1-2)C(N)=O (configuration not stated) + CCn1c(-c2cc(N3CCN(C)CC3)cnc2C(C)OC)c2c3cc(ccc31)-c1csc(n1)CC(NC(=O)C1CC1C)C(=O)N1CCCC(N1)C(=O)OCC(C)(C)C2
// result YES

// query Same thing, different compound: Cc1nc(N2CCC3(CC2)COC(C)C3N)c(CO)nc1Sc1ccnc(N)c1Cl (configuration not stated) + CCn1c(-c2cccnc2C(C)OC)c2c3cc(ccc31)N1CCOC(CC(NC(=O)C(C(C)C)N(C)C(=O)C3(F)CCN(C(=O)C#CC(C)(C)N(C)C)CC3)C(=O)N3CCCC(N3)C(=O)OCC(C)(C)C2)C1
// result NO
